- MEASURED TARGET: C-terminal domain of human centrin 1 (M93-Y172) (human, UniProt Q12798 93-172)
- Sequence (Q12798 93-172): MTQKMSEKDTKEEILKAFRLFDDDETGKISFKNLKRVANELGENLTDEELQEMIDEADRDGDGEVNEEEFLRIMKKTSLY
- PROCEDURE TEXT: ITC
REPORTED METRIC: dH (kcal/mol)
Quick reminder: number only, in kcal/mol, skip the unit.

Worked cases, answers included:
| BINDER | dH / kcal/mol |
| --- | --- |
| Ac-RADLHHQHSVLHRALQAWVT-NH2 [HsSfiR17, repeat 17 peptide of human Sfi1 (641-660)] | -43.1 |
| Ac-SQHNRQLLRGALRRWK-NH2 [HsSfiR18, repeat 18 peptide of human Sfi1 (677-692)] | -29.8 |
| Ac-NWKLLAKGLLIRERLKR-NH2 [P17-XPC, 17-residue peptide of human XPC] | -28.1 |

As a next step, examine the binder that follows.
Enquiry: For Ac-TVWAQLARHLVSHQHHLDAR-NH2 [HsSfi1R17inv, repeat 17 peptide of human Sfi1 in reversed sequence orientation] , what is its reported dH?
Return: -26.6
